Data credit: paper PMC13494812

- target_system: NLuc-CRBN fusion protein (Homo sapiens, UniProt Q96SW2)
- Sequence (Q16531 whole entry, the tested form may be a part): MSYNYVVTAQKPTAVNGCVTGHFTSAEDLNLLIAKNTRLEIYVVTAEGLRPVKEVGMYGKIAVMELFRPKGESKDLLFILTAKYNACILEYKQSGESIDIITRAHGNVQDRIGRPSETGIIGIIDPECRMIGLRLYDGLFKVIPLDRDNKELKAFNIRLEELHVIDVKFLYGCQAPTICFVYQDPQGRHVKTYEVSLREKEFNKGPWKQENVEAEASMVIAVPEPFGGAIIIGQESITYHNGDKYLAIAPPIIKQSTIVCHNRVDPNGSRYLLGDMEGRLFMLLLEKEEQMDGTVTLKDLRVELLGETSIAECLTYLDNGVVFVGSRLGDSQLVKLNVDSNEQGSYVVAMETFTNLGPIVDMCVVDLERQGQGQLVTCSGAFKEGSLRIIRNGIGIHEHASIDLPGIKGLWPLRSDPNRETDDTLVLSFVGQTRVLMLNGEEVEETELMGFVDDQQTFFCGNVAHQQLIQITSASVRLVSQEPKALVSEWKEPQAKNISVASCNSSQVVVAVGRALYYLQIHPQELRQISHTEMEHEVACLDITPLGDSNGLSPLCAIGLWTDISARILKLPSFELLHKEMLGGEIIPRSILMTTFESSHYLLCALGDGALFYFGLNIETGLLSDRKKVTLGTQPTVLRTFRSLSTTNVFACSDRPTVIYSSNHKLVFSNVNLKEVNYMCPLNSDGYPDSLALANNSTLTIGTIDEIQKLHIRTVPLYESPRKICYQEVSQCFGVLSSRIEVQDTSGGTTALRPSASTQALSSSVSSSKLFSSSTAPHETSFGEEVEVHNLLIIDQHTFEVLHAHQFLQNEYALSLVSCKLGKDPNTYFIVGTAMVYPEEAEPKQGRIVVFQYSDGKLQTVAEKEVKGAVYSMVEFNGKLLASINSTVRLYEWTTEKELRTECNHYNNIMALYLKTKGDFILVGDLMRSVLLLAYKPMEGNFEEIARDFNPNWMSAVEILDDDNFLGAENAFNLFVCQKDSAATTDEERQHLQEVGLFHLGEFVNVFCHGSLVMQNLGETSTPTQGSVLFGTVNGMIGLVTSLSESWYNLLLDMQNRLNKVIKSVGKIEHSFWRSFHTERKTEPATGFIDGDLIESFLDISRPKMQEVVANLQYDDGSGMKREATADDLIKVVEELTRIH
- Sequence (Q96SW2 whole entry, the tested form may be a part): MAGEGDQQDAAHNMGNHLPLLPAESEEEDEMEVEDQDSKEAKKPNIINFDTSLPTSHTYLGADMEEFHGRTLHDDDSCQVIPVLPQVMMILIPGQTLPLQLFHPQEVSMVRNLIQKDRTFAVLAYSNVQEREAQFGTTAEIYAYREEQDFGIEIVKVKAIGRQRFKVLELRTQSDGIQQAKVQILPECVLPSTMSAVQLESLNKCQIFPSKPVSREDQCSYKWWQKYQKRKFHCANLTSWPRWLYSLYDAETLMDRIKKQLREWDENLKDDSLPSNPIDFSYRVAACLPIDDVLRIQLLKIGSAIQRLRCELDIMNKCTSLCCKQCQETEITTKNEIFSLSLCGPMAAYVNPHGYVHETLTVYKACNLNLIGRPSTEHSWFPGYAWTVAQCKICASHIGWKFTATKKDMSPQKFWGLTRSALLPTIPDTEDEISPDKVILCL
- assay_summary: CRBN NanoBRET Target Engagement assay in live MCF-7 cells
- experimental_setup: 0.5 µM tracer, 2 h, read-out: IC50, half-maximal inhibition of tracer binding to NLuc-CRBN
recorded_metric: IC50 (nM)

I. CNCCN(C)Cc1c[nH]nc1-c1ccc(OCCOCCOCCOCCOCCOCCNc2cccc3c2C(=O)N(C2CCC(=O)NC2=O)C3=O)cc1 (stereo not drawn)
II. CNCCN(C)Cc1c[nH]nc1-c1ccc(OCCCCCCNc2cccc3c2C(=O)N(C2CCC(=O)NC2=O)C3=O)cc1 (stereo not drawn)
Which has the smaller recorded IC50, I or II ? Select an item and report its label.
II

###

- assay_summary: PROTAC stability in cell culture media
- Assay type: in vitro ADME
- experimental_setup: read-out: t1/2 in cell culture media (converted)
recorded_metric: half-life (h)

I. CNCCN(C)Cc1c[nH]nc1-c1ccc(OCCOCCOCCOCCOCCOCCOc2cccc3c2C(=O)N(C2CCC(=O)NC2=O)C3=O)cc1 (centres unmarked) [PROTAC L]
II. CNCCN(C)Cc1c[nH]nc1-c1ccc(OCCOCCOCCOCCOCCOCCNc2cccc3c2C(=O)N(C2CCC(=O)NC2=O)C3=O)cc1 (centres unmarked) [PROTAC M]
Select the item with the higher value of half-life from the options I and II listed. # respond with the chosen item's label
II
